# credit: patent US8592422B2

Molecular target: human mGluR5a receptor (Homo sapiens)
Construct: cDNA subcloned into pcDNA3.1(-)
Experiment: Cell-based functional Ca2+ mobilization assay (FDSS), potentiation of glutamate EC20 response
Details: HEK cells transfected with human mGluR5 (H10H or H12H); in presence of EC20 glutamate; read-out: EC50
Result type: EC50

Observe how each entry below is paired with its result.
INSERT INTO measurements (molecule, recorded_result) VALUES
  ('O=C1c2cc(COc3ccccc3)nn2CCN1c1cncnc1 [Example 31]', '> 10 µM'),
  ('CC1CNC(=O)c2cc(COc3ccccc3)nn21 (racemic) [Example 250]', '> 10 µM');

Please examine the following record next.
Input line: Param item = O=C1NCCn2nc(COc3ccccc3)cc21 [Example 1] ; retrieve measured EC50.
Output line: 2.24 µM

###

Target: human mGluR5a receptor (Homo sapiens, UniProt P41594)
Construct: cDNA subcloned into pcDNA3.1(-)
Sequence (P41594 21-1180 isoform P41594-2 limits assumed): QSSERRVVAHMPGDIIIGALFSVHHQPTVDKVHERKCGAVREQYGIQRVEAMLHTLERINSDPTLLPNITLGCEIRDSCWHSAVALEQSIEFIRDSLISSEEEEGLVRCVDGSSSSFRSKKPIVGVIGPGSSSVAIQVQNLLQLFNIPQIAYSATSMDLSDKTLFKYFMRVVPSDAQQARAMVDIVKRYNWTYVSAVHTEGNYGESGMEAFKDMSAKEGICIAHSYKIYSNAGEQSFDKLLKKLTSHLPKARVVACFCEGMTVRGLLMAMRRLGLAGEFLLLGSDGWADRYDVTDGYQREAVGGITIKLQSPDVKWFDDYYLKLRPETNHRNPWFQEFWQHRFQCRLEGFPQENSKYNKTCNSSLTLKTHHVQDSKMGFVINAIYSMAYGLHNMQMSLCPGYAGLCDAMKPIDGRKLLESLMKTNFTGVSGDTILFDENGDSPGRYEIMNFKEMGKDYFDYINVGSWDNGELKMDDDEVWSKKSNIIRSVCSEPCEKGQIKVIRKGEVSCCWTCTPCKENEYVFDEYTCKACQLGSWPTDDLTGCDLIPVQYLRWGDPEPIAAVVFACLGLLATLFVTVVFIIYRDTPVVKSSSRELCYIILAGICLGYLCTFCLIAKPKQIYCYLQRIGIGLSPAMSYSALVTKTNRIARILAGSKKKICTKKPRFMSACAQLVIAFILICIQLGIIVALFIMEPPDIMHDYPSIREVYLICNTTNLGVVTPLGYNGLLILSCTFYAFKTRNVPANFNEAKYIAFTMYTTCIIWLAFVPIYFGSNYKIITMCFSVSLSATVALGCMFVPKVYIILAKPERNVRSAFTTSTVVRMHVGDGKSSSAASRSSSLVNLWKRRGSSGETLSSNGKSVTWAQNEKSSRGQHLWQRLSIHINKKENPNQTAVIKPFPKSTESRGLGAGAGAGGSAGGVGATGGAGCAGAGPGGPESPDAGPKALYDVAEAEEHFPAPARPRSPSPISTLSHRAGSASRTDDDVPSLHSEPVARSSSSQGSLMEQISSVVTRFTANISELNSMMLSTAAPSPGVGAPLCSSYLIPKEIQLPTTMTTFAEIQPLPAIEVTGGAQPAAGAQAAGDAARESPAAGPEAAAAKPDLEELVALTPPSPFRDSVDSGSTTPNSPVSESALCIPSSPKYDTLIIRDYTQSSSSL
Assay: Cell-based functional Ca2+ mobilization assay (FDSS), potentiation of glutamate EC20 response
Conditions: HEK cells transfected with human mGluR5 (H10H or H12H); in presence of EC20 glutamate; read-out: EC50
Result type: EC50 (nM)

Field: example entries. Status: answers known.
INSERT INTO assay_data (compound, recorded_result) VALUES
  ('O=C1c2cc(COc3ccccc3)nn2CCN1c1cc(F)cc2cccnc12', 130),
  ('Cc1cc(N2CCn3nc(COc4ccccc4)cc3C2=O)ncc1F', 91),
  ('CCOc1cccc(N2CCn3nc(COc4ccccc4)cc3C2=O)c1', 130),
  ('CC(C)N1CCn2nc(COc3ccccc3)cc2C1=O', 1860),
  ('O=C1c2cc(COc3ccc(F)cc3)nn2CCN1c1ccc(F)cn1', 151),
  ('Cc1ccc(N2CCn3nc(COc4ccccc4)cc3C2=O)cn1', 1200),
  ('CC1CN(CC2CC2)C(=O)c2cc(COc3ccccc3)nn21 (single isomer, unassigned) [Example 128]', 141),
  ('CN(C)c1nc(N2CCn3nc(COc4ccccc4)cc3C2=O)ccc1F', 40),
  ('Cc1cnc(N2CCn3nc(COc4ccccc4)cc3C2=O)cn1', 955),
  ('O=C1c2cc(COc3ccccc3)nn2CCN1c1cccc(C2CCOCC2)n1', 2570);

1: O=C1c2cc(COc3ccccc3)nn2CCN1c1ccc2nccc(Cl)c2c1
2: O=C1c2cc(COc3ccc(F)cc3)nn2CCN1c1ccc(F)cc1
Input line: When their EC50 values are compared, which is larger, 1 or 2 ? State the label of the item chosen.
Output line: 2
(2: 105 nM, 1: 46 nM)

###

Each entry below carries its recorded melting point.

Worked examples, 2 compounds total:
INSERT INTO measurements (item_smiles, recorded_result) VALUES
  ('COc1nc(N2CCn3nc(COc4ccc(F)cc4)cc3C2=O)ncc1F', '> 300 °C'),
  ('Cc1ccc(N2CCn3nc(COc4ccccn4)cc3C2=O)cc1', '> 300 °C');

Let us examine a further case.
Input line: GET /values?readout=melting point&item= Cc1ccc(N2CCn3nc(COc4ccccc4)cc3C2=O)c(C)n1
Output line: > 300 °C

###

Target: human mGluR5a receptor (Homo sapiens, UniProt P41594)
Construct: cDNA subcloned into pcDNA3.1(-)
Experiment: Cell-based functional Ca2+ mobilization assay (FDSS), potentiation of glutamate EC20 response
Details: HEK cells transfected with human mGluR5 (H10H or H12H); in presence of EC20 glutamate; read-out: EC50
Result type: EC50

INSERT INTO measurements (compound, recorded_result) VALUES
  ('CC1CN(c2ccc(F)cc2)C(=O)c2cc(COc3cccc(C#N)c3)nn21 (stereo not shown)', '> 30.2 µM');

Input line: Can you share its EC50? I mean this compound: O=C1c2c(Cl)c(COc3ccccc3)nn2CCN1CC1CC1
Output line: > 30.2 µM

Input line: Also check CNc1cccc(N2CCn3nc(COc4ccccc4)cc3C2=O)n1
Output line: 0.275 µM

Input line: # repeat for Cc1c(COc2ccccc2)nn2c1C(=O)N(CC1CC1)CC2
Output line: > 30.2 µM

###

Target: human mGluR5a receptor (Homo sapiens, UniProt P41594)
Construct: cDNA subcloned into pcDNA3.1(-)
Assay: Cell-based functional Ca2+ mobilization assay (FDSS), potentiation of glutamate EC20 response
Conditions: HEK cells transfected with human mGluR5 (H10H or H12H); in presence of EC20 glutamate
Items are presented alongside their recorded pEC50.

INSERT INTO results (compound, result_type, recorded_result) VALUES
  ('Cc1cccc(OCc2cc3n(n2)CCN(c2ccc(F)cc2)C3=O)n1 [Example 173]', 'pEC50', '<5.00'),
  ('CNc1cccc(OCc2cc3n(n2)CCN(c2ccc(F)cc2)C3=O)n1 [Example 311]', 'pEC50', '<4.52');

Input line: Would you mind telling me what pEC50 value was observed for CC(Oc1ccccc1)c1cc2n(n1)CCN(c1ccc(F)cc1)C2=O (racemic) [Example 258] ?
Output line: <5.00

###

Molecular target: human mGluR5a receptor (Homo sapiens)
Construct: cDNA subcloned into pcDNA3.1(-)
Assay: Cell-based functional Ca2+ mobilization assay (FDSS), potentiation of glutamate EC20 response
Conditions: HEK cells transfected with human mGluR5 (H10H or H12H); in presence of EC20 glutamate; read-out: EC50
Result type: EC50

INSERT INTO measurements (item_smiles, result_type, recorded_result) VALUES
  ('Cn1cnc(N2CCn3nc(COc4ccccc4)cc3C2=O)c1', 'EC50', '> 30.2 µM');

Input line: # returns recorded EC50 (system: human mGluR5a receptor (Homo sapiens)) for Cc1[nH]ncc1N1CCn2nc(COc3ccccc3)cc2C1=O
Output line: > 10 µM

Input line: Field entry: O=c1[nH]ccn2nc(COc3ccccc3)cc12
Output line: > 30.2 µM

Input line: Now this one: COc1nc(N2C(=O)c3cc(COc4ccccc4)nn3C[C@H]2C)ncc1C
Output line: 0.54 µM

Input line: Also need O=C1c2cc(COc3ncccn3)nn2CCN1c1ccc(F)cc1 , thanks.
Output line: > 10 µM

Input line: And what about the compound O=C1c2cc(COc3ccnnc3)nn2CCN1c1ccc(F)cc1 ?
Output line: > 10 µM
